- Test system: p-ERK 1/2 (Thr202/Tyr204) in MIAPaca-2 cells
- ASSAY_NOTES: Cell protein kinase (p-ERK) phosphorylation inhibition, AlphaLISA
- Assay type: cell-based
- MEASUREMENT_SETUP: treated for 2 hours
METRIC_NAME: IC50
Returns: string containing the number followed by the unit.

Name the reported IC50 value associated with the compound C[C@@H]1OCC2(CCN(c3cnc(Sc4ccnc(N)c4Cl)c(N)n3)CC2)[C@@H]1N
30 nM
